- Tested on: COR L88 complex tumor spheroid viability
- assay_explanation: Anticancer human tumor COR L88 cell line growth inhibition;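 note: compound exposure lasted 7 days before viability readout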;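 for viability, T/C: percent of DMSO vehicle-treated spheroids = 100%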
- cond: second compound 0.00949 µM; first compound 3.16 µM; stronger effect = lower value
parameter: viability, T/C (%)
Numeric only. Scale: %

Ask: What does the record list as viability, T/C for COc1ccc([C@@H](O)c2cc(-c3ncnc4cc(N5CCOCC5)ccc34)c(F)cc2Cl)nn1 + CC[C@@]1(O)C(=O)OCc2c1cc1n(c2=O)Cc2cc3c(CN(C)C)c(O)ccc3nc2-1 ?
Reply: 52.9

Ask: What does the record list as viability, T/C for [2H]c1nc(C)nc([2H])c1-c1cc(NC[C@@H](C)c2cccc3c(C(=O)NC)ccnc23)ncn1 + CC[C@@]1(O)C(=O)OCc2c1cc1n(c2=O)Cc2cc3c(CN(C)C)c(O)ccc3nc2-1 ?
Reply: 85

Ask: What does the record list as viability, T/C for Cc1cc(C)c(CNC(=O)c2cc(-c3ccc(CN4CCOCC4)cc3)cc3c2cnn3C2CCCC2)c(=O)[nH]1 + CC[C@@]1(O)C(=O)OCc2c1cc1n(c2=O)Cc2cc3c(CN(C)C)c(O)ccc3nc2-1 ?
Reply: 60.3

====

- Test system: COR L88 complex tumor spheroid viability
- assay_explanation: Anticancer human tumor COR L88 cell line growth inhibition;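 note: compound exposure lasted 7 days before viability readout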;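 for viability, T/C: percent of DMSO vehicle-treated spheroids = 100%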
- cond: second compound 30 pM; first compound 10 µM; stronger effect = lower value
Exam item: assign Y to entries whose viability, T/C is below 60% and N to entries at or above 60%. Note that a value of exactly 60% receives N.

Ask: Is viability, T/C strictly under 60% for the entry COc1ccc([C@@H](O)c2cc(-c3ncnc4cc(N5CCOCC5)ccc34)c(F)cc2Cl)nn1 + COc1cc2c(cc1O)CCNC21CSC2c3c(OC(C)=O)c(C)c4c(c3C(COC1=O)N1C(O)C3Cc5cc(C)c(OC)c(O)c5C(C21)N3C)OCO4 ?
Reply: Y

Ask: Is viability, T/C strictly under 60% for the entry [2H]c1nc(C)nc([2H])c1-c1cc(NC[C@@H](C)c2cccc3c(C(=O)NC)ccnc23)ncn1 + COc1cc2c(cc1O)CCNC21CSC2c3c(OC(C)=O)c(C)c4c(c3C(COC1=O)N1C(O)C3Cc5cc(C)c(OC)c(O)c5C(C21)N3C)OCO4 ?
Reply: N

Ask: Is viability, T/C strictly under 60% for the entry CC1COCCN1c1cc(-c2ccnn2C)c2ccnc(-c3ccn[nH]3)c2n1 (stereo unspecified) + COc1cc2c(cc1O)CCNC21CSC2c3c(OC(C)=O)c(C)c4c(c3C(COC1=O)N1C(O)C3Cc5cc(C)c(OC)c(O)c5C(C21)N3C)OCO4 ?
Reply: Y

Ask: Is viability, T/C strictly under 60% for the entry CC(C)n1c(=O)n(C)c2cnc3cc(F)c(-c4ccc(OCCCN5CCCCC5)nc4)cc3c21 + COc1cc2c(cc1O)CCNC21CSC2c3c(OC(C)=O)c(C)c4c(c3C(COC1=O)N1C(O)C3Cc5cc(C)c(OC)c(O)c5C(C21)N3C)OCO4 ?
Reply: Y

Ask: Is viability, T/C strictly under 60% for the entry COc1cc(C)[nH]c(=O)c1CN1CCc2c(Cl)cc(C(OC)C3COC3)c(Cl)c2C1=O (stereo unspecified) + COc1cc2c(cc1O)CCNC21CSC2c3c(OC(C)=O)c(C)c4c(c3C(COC1=O)N1C(O)C3Cc5cc(C)c(OC)c(O)c5C(C21)N3C)OCO4 ?
Reply: N

====

What viability, T/C was measured for each of the following?
- Tested on: COR L88 complex tumor spheroid viability
- assay_explanation: Anticancer human tumor COR L88 cell line growth inhibition;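 note: compound exposure lasted 7 days before viability readout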;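 for viability, T/C: percent of DMSO vehicle-treated spheroids = 100%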
- cond: second compound 0.003 µM; first compound 1 µM; stronger effect = lower value

Ask: What does the record list as viability, T/C for COc1ccc([C@@H](O)c2cc(-c3ncnc4cc(N5CCOCC5)ccc34)c(F)cc2Cl)nn1 + CC[C@@]1(O)C(=O)OCc2c1cc1n(c2=O)Cc2cc3c(CN(C)C)c(O)ccc3nc2-1 ?
Reply: 71.8%

Ask: What does the record list as viability, T/C for Cc1cc(C)c(CNC(=O)c2cc(-c3ccc(CN4CCOCC4)cc3)cc3c2cnn3C2CCCC2)c(=O)[nH]1 + CC[C@@]1(O)C(=O)OCc2c1cc1n(c2=O)Cc2cc3c(CN(C)C)c(O)ccc3nc2-1 ?
Reply: 80.8%

Ask: What does the record list as viability, T/C for COc1cc(C)[nH]c(=O)c1CN1CCc2c(Cl)cc(C(OC)C3COC3)c(Cl)c2C1=O (configuration not stated) + CC[C@@]1(O)C(=O)OCc2c1cc1n(c2=O)Cc2cc3c(CN(C)C)c(O)ccc3nc2-1 ?
Reply: 85.4%

Ask: What does the record list as viability, T/C for [2H]c1nc(C)nc([2H])c1-c1cc(NC[C@@H](C)c2cccc3c(C(=O)NC)ccnc23)ncn1 + CC[C@@]1(O)C(=O)OCc2c1cc1n(c2=O)Cc2cc3c(CN(C)C)c(O)ccc3nc2-1 ?
Reply: 99%

Ask: What does the record list as viability, T/C for CC1COCCN1c1cc(-c2ccnn2C)c2ccnc(-c3ccn[nH]3)c2n1 (configuration not stated) + CC[C@@]1(O)C(=O)OCc2c1cc1n(c2=O)Cc2cc3c(CN(C)C)c(O)ccc3nc2-1 ?
Reply: 25.8%

Ask: What does the record list as viability, T/C for COc1cc(C)[nH]c(=O)c1CN1CCc2c(Cl)cc(C(OC)C3COC3)c(Cl)c2C1=O (configuration not stated) + COc1cc2c(cc1O)CCNC21CSC2c3c(OC(C)=O)c(C)c4c(c3C(COC1=O)N1C(O)C3Cc5cc(C)c(OC)c(O)c5C(C21)N3C)OCO4 ?
Reply: 1.24%

Ask: What does the record list as viability, T/C for CC(C)n1c(=O)n(C)c2cnc3cc(F)c(-c4ccc(OCCCN5CCCCC5)nc4)cc3c21 + CC[C@@]1(O)C(=O)OCc2c1cc1n(c2=O)Cc2cc3c(CN(C)C)c(O)ccc3nc2-1 ?
Reply: 80.6%

Ask: What does the record list as viability, T/C for Cc1cc(C)c(CNC(=O)c2cc(-c3ccc(CN4CCOCC4)cc3)cc3c2cnn3C2CCCC2)c(=O)[nH]1 + COc1cc2c(cc1O)CCNC21CSC2c3c(OC(C)=O)c(C)c4c(c3C(COC1=O)N1C(O)C3Cc5cc(C)c(OC)c(O)c5C(C21)N3C)OCO4 ?
Reply: 1.18%

Ask: What does the record list as viability, T/C for CC1COCCN1c1cc(-c2ccnn2C)c2ccnc(-c3ccn[nH]3)c2n1 (configuration not stated) + COc1cc2c(cc1O)CCNC21CSC2c3c(OC(C)=O)c(C)c4c(c3C(COC1=O)N1C(O)C3Cc5cc(C)c(OC)c(O)c5C(C21)N3C)OCO4 ?
Reply: 0.41%

Ask: What does the record list as viability, T/C for COc1ccc([C@@H](O)c2cc(-c3ncnc4cc(N5CCOCC5)ccc34)c(F)cc2Cl)nn1 + COc1cc2c(cc1O)CCNC21CSC2c3c(OC(C)=O)c(C)c4c(c3C(COC1=O)N1C(O)C3Cc5cc(C)c(OC)c(O)c5C(C21)N3C)OCO4 ?
Reply: 2.44%

Ask: What does the record list as viability, T/C for [2H]c1nc(C)nc([2H])c1-c1cc(NC[C@@H](C)c2cccc3c(C(=O)NC)ccnc23)ncn1 + COc1cc2c(cc1O)CCNC21CSC2c3c(OC(C)=O)c(C)c4c(c3C(COC1=O)N1C(O)C3Cc5cc(C)c(OC)c(O)c5C(C21)N3C)OCO4 ?
Reply: 0.45%

Ask: What does the record list as viability, T/C for CC(C)n1c(=O)n(C)c2cnc3cc(F)c(-c4ccc(OCCCN5CCCCC5)nc4)cc3c21 + COc1cc2c(cc1O)CCNC21CSC2c3c(OC(C)=O)c(C)c4c(c3C(COC1=O)N1C(O)C3Cc5cc(C)c(OC)c(O)c5C(C21)N3C)OCO4 ?
Reply: 0.82%

====

What IC50 was measured for each of the following?
- System: COR L88 complex tumor spheroid viability
- assay_explanation: Anticancer human tumor COR L88 cell line growth inhibition;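 note: compound exposure lasted 7 days before viability readout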
- cond: curve of first compound; second compound 3.16 µM

Ask: What does the record list as IC50 for CNCc1ccc(-c2cc(-c3nc(-c4ccc(S(=O)(=O)C(C)C)cc4)cnc3N)on2)cc1 + Cn1nnc2c(C(N)=O)ncn2c1=O ?
Reply: 639 nM

Ask: What does the record list as IC50 for CC1COCCN1c1cc(-c2ccnn2C)c2ccnc(-c3ccn[nH]3)c2n1 (stereo unspecified) + Cn1nnc2c(C(N)=O)ncn2c1=O ?
Reply: 77.4 nM

Ask: What does the record list as IC50 for CC(C)n1c(=O)n(C)c2cnc3cc(F)c(-c4ccc(OCCCN5CCCCC5)nc4)cc3c21 + Cn1nnc2c(C(N)=O)ncn2c1=O ?
Reply: > 10000 nM

Ask: What does the record list as IC50 for [2H]c1nc(C)nc([2H])c1-c1cc(NC[C@@H](C)c2cccc3c(C(=O)NC)ccnc23)ncn1 + Cn1nnc2c(C(N)=O)ncn2c1=O ?
Reply: > 10000 nM

Ask: What does the record list as IC50 for Cc1sc2c(c1C)C(c1ccc(Cl)cc1)=NC(CC(=O)Nc1ccc(O)cc1)c1nnc(C)n1-2 (stereo unspecified) + Cn1nnc2c(C(N)=O)ncn2c1=O ?
Reply: 624 nM

Ask: What does the record list as IC50 for Cc1cc(C)c(CNC(=O)c2cc(-c3ccc(CN4CCOCC4)cc3)cc3c2cnn3C2CCCC2)c(=O)[nH]1 + Cn1nnc2c(C(N)=O)ncn2c1=O ?
Reply: > 10000 nM
